# Tested on: U-251
# ASSAY: NCI tumour cell line growth inhibition, 48 h
Active and inactive are the calls of the source. Cut-off read from the data, not from the text of the source: active = GI50 up to about 1.1 µM and inactive = higher.
PARAMETER: GI50

Here are 4 compounds together with their reported answers.
# return recorded GI50 for entry Nc1ccc(-c2nc3ccccc3s2)cc1Br
57.5 µM (inactive)

Please list GI50 recorded for the compound C=C1C(C2(C)C(OC(C)=O)CC(=O)OC(C)(COC(C)=O)C2CC(=O)OC)C(OC=O)C(OC(=O)C(O)C(C)CC)C2(C)C(c3ccoc3)CC(=O)C12O (stereo not given)
3.86 µM (inactive)

State its GI50: c1csc(-c2cscc2-c2cccs2)c1
> 100 µM (inactive)

Provide GI50 value for the following compound: O=C(Cn1c(=O)oc2ccc(C(=O)c3ccc(F)cc3)cc21)c1ccccc1
> 100 µM (inactive)

Attention now turns to another entry.
Note GI50 for the compound shown: COc1cc(CCCC(O)COc2cccc3c2C2(O)CCCCCC32)cc(OC)c1 (stereo not given)
18.9 µM (inactive)

Taken from ChEMBL document CHEMBL1201862.
